Values were extracted from paper PMC5432571.

Molecular target: α3 GlyR (Homo sapiens)
Construct: expressed in transfected cells; host or cells: CHO cells
Sequence (O75311 34-464): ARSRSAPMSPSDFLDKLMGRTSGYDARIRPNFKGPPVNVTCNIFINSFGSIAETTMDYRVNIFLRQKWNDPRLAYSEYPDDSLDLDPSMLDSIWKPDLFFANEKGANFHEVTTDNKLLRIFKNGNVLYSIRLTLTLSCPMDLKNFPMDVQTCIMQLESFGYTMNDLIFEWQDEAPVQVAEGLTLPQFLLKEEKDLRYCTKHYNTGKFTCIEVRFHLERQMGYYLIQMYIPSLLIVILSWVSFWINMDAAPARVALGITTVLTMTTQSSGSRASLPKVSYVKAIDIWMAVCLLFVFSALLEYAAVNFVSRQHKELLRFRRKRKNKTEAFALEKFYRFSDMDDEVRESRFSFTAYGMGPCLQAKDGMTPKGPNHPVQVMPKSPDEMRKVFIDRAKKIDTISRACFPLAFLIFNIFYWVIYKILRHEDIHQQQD
Test: Whole-cell patch-clamp of glycine-induced currents, α3 GlyR expressed in CHO cells
Type: cell-based
Conditions: −30 mV; glycine 100 μM; representative; read-out: NFA IC50 (representative IC50 curve)
observation_type: IC50 (µM)
Just the number please, in µM, no unit attached.

Tell me reported IC50 for `O=C(O)c1cccnc1Nc1cccc(C(F)(F)F)c1` , tested with α3 GlyR (Homo sapiens).
78
